subjectOfTest: KRAS-G12V (Homo sapiens, UniProt P01116, G12V)
Sequence (P01116 with tags, fused parts or gaps isoform P01116-2 G12V): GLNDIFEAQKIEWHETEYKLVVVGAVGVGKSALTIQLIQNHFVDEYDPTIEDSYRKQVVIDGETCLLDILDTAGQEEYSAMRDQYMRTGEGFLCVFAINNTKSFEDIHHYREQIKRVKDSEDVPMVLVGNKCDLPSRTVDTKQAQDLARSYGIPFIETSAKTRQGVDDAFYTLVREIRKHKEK
experimentalProtocol: SOS-catalyzed nucleotide exchange assay (Procedure A, TR-FRET), KRAS-G12V
Assay type: biochemical
conditionContext: nucleotide exchange, read-out: KRAS G12V GNE IC50
The threshold is 20 nM. Values of IC50 beneath it are tagged 1; values meeting or exceeding it are tagged -1.

entrysmiles=C[C@@]1(O)COCCN(c2nc(OC[C@@]34CCCN3C[C@H](F)C4)nc3sc4c(-c5c(C6(F)CC6)c(C(F)(F)F)cc6[nH]ncc56)nncc4c23)C1 answerlabel=1
entrysmiles=C[C@@]1(O)COCCN(c2nc(OC[C@]3(CN4CCC[C@H]4CF)CC3(F)F)nc3sc4c(-c5c(C6(F)CC6)c(Cl)cc6[nH]ncc56)nccc4c23)C1 answerlabel=-1
entrysmiles=C[C@H](N(C)C)[C@@]1(COc2nc(N3CCOC[C@@](C)(O)C3)c3c(n2)sc2c(-c4c(C5CC5)c(Cl)cc5[nH]ncc45)nccc23)CC1(F)F answerlabel=-1
entrysmiles=C[C@@]1(O)COCCN(c2nc(OC[C@@]34CCCN3C[C@H](F)C4)nc3sc4c(-c5c(C6CC6)c(Cl)cc6[nH]ncc56)nccc4c23)C1 answerlabel=1
entrysmiles=C[C@H]1CN(C[C@@]2(COc3nc(N4CCOC[C@@](C)(O)C4)c4c(n3)sc3c(-c5c(C6(F)CC6)c(Cl)cc6[nH]ncc56)nccc34)CC2(F)F)[C@@H](C)CO1 answerlabel=-1
entrysmiles=COC(=O)c1cc2[nH]ncc2c(-c2nccc3c2sc2nc(OC[C@@]45CCCN4C[C@H](F)C5)nc(N4CCOC[C@@](C)(O)C4)c23)c1C1CC1 answerlabel=-1

* * *

Measured IC50, listed per entry for reference.
subjectOfTest: KRAS-G12D (Homo sapiens, UniProt P01116, G12D)
Sequence (P01116 with tags, fused parts or gaps isoform P01116-2 G12D): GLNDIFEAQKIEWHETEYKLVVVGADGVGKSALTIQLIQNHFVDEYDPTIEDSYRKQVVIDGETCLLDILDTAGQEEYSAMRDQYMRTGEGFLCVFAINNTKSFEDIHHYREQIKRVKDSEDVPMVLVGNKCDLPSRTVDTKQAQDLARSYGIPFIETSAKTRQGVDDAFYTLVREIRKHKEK
experimentalProtocol: SOS-catalyzed nucleotide exchange assay (Procedure A, TR-FRET), KRAS-G12D
Format: biochemical
conditionContext: nucleotide exchange, read-out: KRAS G12D GNE IC50
reportedMetric: IC50 (µM)

compound=CN1CCC[C@H]1COc1nc(N2CCOC[C@@](C)(O)C2)c2c(n1)sc1c(-c3c(C4CC4)c(Cl)cc4[nH]ncc34)nccc12 obsvalue=0.0327
compound="CC1CCc2cc3[nH]ncc3c(-c3nccc4c3sc3nc(OC[C@@]56CCCN5C[C@H](F)C6)nc(N5CCOC[C@@](C)(O)C5)c34)c21 (single isomer, unassigned)" obsvalue=0.00212
compound=CCc1c(C)cc2[nH]ncc2c1-c1nccc2c1sc1nc(OC[C@@]34CCCN3C[C@H](F)C4)nc(N3CCOC[C@@](C)(O)C3)c12 obsvalue=0.164

* * *

subjectOfTest: KRAS-G12D (Homo sapiens, UniProt P01116, G12D)
experimentalProtocol: SOS-catalyzed nucleotide exchange assay (Procedure A, TR-FRET), KRAS-G12D
Type: biochemical
conditionContext: nucleotide exchange, read-out: KRAS G12D GNE IC50
The reader will find reported IC50 values listed item by item below.
reportedMetric: IC50 (nM)

compound="Cc1cc2[nH]ncc2c(-c2nc(-c3ccoc3)cc3c2sc2nc(OC[C@@]45CCCN4C[C@H](F)C5)nc(N4CCOC[C@@](C)(O)C4)c23)c1C(F)(F)F [Ex-29]" outputunit=nM obsvalue=251
compound="Cc1cc2[nH]ncc2c(-c2nccc3c4c(N5CCC[C@@](C)(O)C5)nc(OC[C@@]56CCCN5C[C@H](F)C6)nc4n(C)c23)c1C(F)(F)F (single isomer, unassigned) [Ex-5]" outputunit=nM obsvalue=61.2
compound="C[C@H]1C[C@@H](COc2nc(N3CCOC[C@@](C)(O)C3)c3c(n2)sc2c(-c4c(C5CC5)c(C(F)(F)F)cc5[nH]ncc45)nccc23)N(C)C1 [Ex-82]" outputunit=nM obsvalue=31.2
compound="COC(=O)c1cc2[nH]ncc2c(-c2nccc3c2sc2nc(OC[C@@]45CCCN4C[C@H](F)C5)nc(N4CCOC[C@@](C)(O)C4)c23)c1C1CC1 [Ex-49]" outputunit=nM obsvalue=39.6
compound="Cc1cc2[nH]ncc2c(-c2nccn3c2c(Cl)c2nc(OC[C@@]45CCCN4C[C@H](F)C5)nc(N4CCOC[C@@](C)(O)C4)c23)c1C1CC1 (single isomer, unassigned) [Ex-297]" outputunit=nM obsvalue=23.1
compound="C=C(C)c1c(C(F)(F)F)cc2[nH]ncc2c1-c1nccc2c1sc1nc(OCC34CCCN3CC(F)C4)nc(N3CCOCC(C)(O)C3)c12 (stereo not drawn) [Ex-60]" outputunit=nM obsvalue=9.46
compound="Cc1cccc(-c2nccc3c2sc2nc(OC[C@@]45CCCN4C[C@H](F)C5)nc(N4CCOC[C@@](C)(O)C4)c23)c1C [Ex-120]" outputunit=nM obsvalue=403
compound="C[C@@]1(O)COCCN(c2nc(OC[C@@]34CCCN3C[C@H](F)C4)nc3sc4c(-c5c6c(cc7[nH]ncc57)C5CC5C6)nccc4c23)C1 (stereo partly drawn) [Ex-91]" outputunit=nM obsvalue=65
compound="C[C@@]1(O)COCCN(c2nc(OC[C@@]34CCCN3C/C(=C\\F)C4)nc3sc4c(-c5c(C6CC6)c(Cl)cc6[nH]ncc56)nccc4c23)C1 [Ex-208]" outputunit=nM obsvalue=2.44
compound="Cc1cc(-c2nccc3c2sc2nc(OC[C@@]45CCCN4C[C@H](F)C5)nc(N4CCOC[C@@](C)(O)C4)c23)c2cn[nH]c2c1 [Ex-37]" outputunit=nM obsvalue=1450
compound="C[C@@]1(O)COCCN(c2nc(OC[C@@]34CCCN3C[C@@]3(CC3(F)F)C4)nc3sc4c(-c5c(C6CC6)c(Cl)cc6[nH]ncc56)nccc4c23)C1 [Ex-211]" outputunit=nM obsvalue=5.85
compound="C[C@@]1(O)COCCN(c2nc(OC[C@]3(CN4CCC5(CC5)C4)CC3(F)F)nc3sc4c(-c5c(C6(F)CC6)c(Cl)cc6[nH]ncc56)nccc4c23)C1 [Ex-262]" outputunit=nM obsvalue=4.44

These data points were gathered from patent US20260176289A1.
